B1: MIA2 (parent)
chain: DMVSNIELPTRIHEEVYFEPSSSK

variants of: B1; test: protein stability index of a GFP-peptide fusion (GPS, HEK-293T) (PSI 1-6); higher = more stable; conditions: c terminus: a fixed tail appended;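 note: lentivirally expressed fusions sorted by FACS into six bins by GFP to DsRed ratio, PSI derived from sequencing read proportions per bin multiplied by bin number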
Measured quantity: protein stability index

Query (variant): DMVSNIELPTRIHMEVYFEPSSSK [E14M] ; field requested: protein stability index
2.58

Let us now turn to DSVSNIELPTRIHEEVYFEPSSSK [M2S]
5.02
